// provenance: PubChem BioAssay (NCI)

Assignment: determine reported TGI for the given molecules.
- Tested on: OVCAR-4 ovarian
- PROTOCOL SUMMARY: NCI tumour cell line growth inhibition, 48 h

Completed entries (count: 5):
COc1cc(-c2nn(-c3ccc(NC(=O)c4ccc(Cl)c(Cl)c4)cc3)cc2-c2ccncc2)ccc1Cl: > 100 µM
COC(=O)CCCc1ccc2c(c1)CC1(C2)Cc2cc3c(cc2C1)CCCC3: > 100 µM
CC1=NOC2(C1)/C(=N/O)CCC/C2=N\O (stereo unspecified): > 100 µM
CS(=O)(=O)CCNCc1nc(-c2ccc3ncnc(Nc4ccc(F)c(Cl)c4)c3c2)cs1: > 25 µM
O=C(CNc1nncs1)NO: > 100 µM

Turning to the following molecule.
Can you look up the measured TGI of CC(C)(CN)CN for me?
> 100 µM
